The values you see were collected from patent US6706664B1.

# System: solgum
# protocol description: Soil treatment test for upland field
# Format: in vivo
# Parameters: key: 0: normal development; 1: Less damaged; 2: Slightly damaged; 3: Moderately damaged; 4: Severely damaged; 5: All killed
# condition parameters: 500 g/ha, glass house 25° C., 3 weeks
measurement kind: Effects Solgum

[[record]]
molecule = "CCC(Oc1cccc(C(F)(F)F)c1)c1nc2cc(C#N)c(Cl)cc2o1 (stereo not shown)"
target_entity = "solgum"
endpoint_result = 1

[[record]]
molecule = "CCCC(Oc1ccc(F)c(C(F)(F)F)c1)c1nc2cc(C(F)(F)F)ccc2o1 (stereo not shown)"
target_entity = "solgum"
endpoint_result = 1

[[record]]
molecule = "CCC(Oc1ccc(F)c(C(F)(F)F)c1)c1nc2ccc(F)cc2o1 (stereo not shown)"
target_entity = "solgum"
endpoint_result = 0

[[record]]
molecule = "CCCC(Oc1cccc(C(F)(F)F)c1)c1nc2cc(F)c(C(F)(F)F)cc2o1 (stereo not shown)"
target_entity = "solgum"
endpoint_result = 1


###

# System: velvetleaf
# protocol description: Foliar spread test for upland field
# Type: in vivo, Abutilon theophrasti
# Parameters: key: 0: normal development; 1: Less damaged; 2: Slightly damaged; 3: Moderately damaged; 4: Severely damaged; 5: All killed
# condition parameters: foliar spray 500 ppm, 3 weeks, rank vs non-treated
measurement kind: Effects Velvetleaf

[[record]]
molecule = "CC(Oc1cccc(C(F)(F)F)c1)c1nc2ccc(C(F)(F)F)cc2o1 (centres unmarked) [Compound 86]"
endpoint_result = 1

[[record]]
molecule = "CCC(Oc1ccc(F)c(C(F)(F)F)c1)c1nc2cc(F)c(F)cc2o1 (centres unmarked) [Compound 284]"
endpoint_result = 2

[[record]]
molecule = "CCC(Oc1ccc(F)c(C(F)(F)F)c1)c1nc2cc(I)ccc2o1 (centres unmarked) [Compound 171]"
endpoint_result = 3

[[record]]
molecule = "CCC(Oc1cccc(C(F)(F)F)c1)c1nc2cc(C#N)ccc2o1 (centres unmarked) [Compound 190]"
endpoint_result = 4

[[record]]
molecule = "CCC(Oc1ccc(F)c(C(F)(F)F)c1)c1nc2cc(C(F)(F)F)ccc2o1 (centres unmarked) [Compound 197]"
endpoint_result = 3

[[record]]
molecule = "CCC(Oc1ccc(F)c(C(F)(F)F)c1)c1nc2cc(C#N)c(C#N)cc2o1 (centres unmarked) [Compound 316]"
endpoint_result = 3

[[record]]
molecule = "CCC(Oc1cccc(C(F)(F)F)c1)c1nc2cc(F)c(C(F)(F)F)cc2o1 (centres unmarked) [Compound 471]"
endpoint_result = 3

[[record]]
molecule = "CCCCC(Oc1ccc(F)c(C(F)(F)F)c1)c1nc2cc(Cl)ccc2o1 (centres unmarked) [Compound 476]"
endpoint_result = 2

[[record]]
molecule = "CCCC(Oc1ccc(F)c(C(F)(F)F)c1)c1nc2cc(C#N)c(C#N)cc2o1 (centres unmarked) [Compound 318]"
endpoint_result = 2

[[record]]
molecule = "CCC(Oc1cccc(C(F)(F)F)c1)c1nc2cc([N+](=O)[O-])ccc2o1 (centres unmarked) [Compound 178]"
endpoint_result = 3

[[record]]
molecule = "CCC(Oc1cccc(C(F)(F)F)c1)c1nc2cc(Br)ccc2o1 (centres unmarked) [Compound 166]"
endpoint_result = 2

[[record]]
molecule = "CCC(Oc1cccc(C(F)(F)F)c1)c1nc2cc(C#N)c(Cl)cc2o1 (centres unmarked) [Compound 529]"
endpoint_result = 3

[[record]]
molecule = "CCCC(Oc1ccc(F)c(C(F)(F)F)c1)c1nc2cc(C#N)c(Cl)cc2o1 (centres unmarked) [Compound 533]"
endpoint_result = 2

[[record]]
molecule = "CCC(Oc1cccc(OC(F)(F)F)c1)c1nc2cc(Cl)ccc2o1 (centres unmarked) [Compound 447]"
endpoint_result = 2

[[record]]
molecule = "CCC(Oc1ccc(F)c(C(F)(F)F)c1)c1nc2cc(OC)ccc2o1 (centres unmarked) [Compound 503]"
endpoint_result = 3

[[record]]
molecule = "CCCC(Oc1cccc(C(F)(F)F)c1)c1nc2cc(F)c(Cl)cc2o1 (centres unmarked) [Compound 497]"
endpoint_result = 3

[[record]]
molecule = "CCC(Oc1ccc(F)c(C(F)(F)F)c1)c1nc2cc(F)c(Cl)cc2o1 (centres unmarked) [Compound 493]"
endpoint_result = 2

[[record]]
molecule = "CCC(Oc1ccc(Cl)c(C(F)(F)F)c1)c1nc2cc(Cl)ccc2o1 (centres unmarked) [Compound 438]"
endpoint_result = 3

[[record]]
molecule = "CCCC(Oc1cccc(C#N)c1)c1nc2cc(S(C)(=O)=O)c(C)cc2o1 (centres unmarked) [Compound 492]"
endpoint_result = 3

[[record]]
molecule = "CCC(Oc1cccc(S(C)(=O)=O)c1)c1nc2cc(S(C)(=O)=O)ccc2o1 (centres unmarked) [Compound 513]"
endpoint_result = 5

[[record]]
molecule = "CCCC(Oc1cccc(C(F)(F)F)c1)c1nc2cc(S(C)(=O)=O)c(C)cc2o1 (centres unmarked) [Compound 489]"
endpoint_result = 3

[[record]]
molecule = "CCC(Oc1cccc(OC(F)(F)F)c1)c1nc2cc(C#N)c(C#N)cc2o1 (centres unmarked) [Compound 527]"
endpoint_result = 3

[[record]]
molecule = "CCC(Oc1cccc(C#N)c1)c1nc2cc(F)c(Cl)cc2o1 (centres unmarked) [Compound 498]"
endpoint_result = 2

[[record]]
molecule = "CCCC(Oc1cccc(C#N)c1)c1nc2cc(Cl)ccc2o1 (centres unmarked) [Compound 457]"
endpoint_result = 3

[[record]]
molecule = "CCC(Oc1cccc(C#N)c1)c1nc2cc(S(C)(=O)=O)c(C)cc2o1 (centres unmarked) [Compound 491]"
endpoint_result = 3

[[record]]
molecule = "CCC(Oc1ccc(F)c(C(F)(F)F)c1)c1nc2cc(NC(=O)C(F)(F)F)ccc2o1 (centres unmarked) [Compound 518]"
endpoint_result = 3

[[record]]
molecule = "CCC(Oc1cccc(C(F)(F)F)c1)c1nc2cc(Cl)ccc2o1 (centres unmarked) [Compound 140]"
endpoint_result = 2

[[record]]
molecule = "CCC(Oc1cccc(C(F)(F)F)c1)c1nc2cc(Cl)c(C)cc2o1 (centres unmarked) [Compound 339]"
endpoint_result = 2

[[record]]
molecule = "CCC(Oc1ccc(F)c(C(F)(F)F)c1)c1nc2cc(Cl)c(C)cc2o1 (centres unmarked) [Compound 340]"
endpoint_result = 4

[[record]]
molecule = "CCCC(Oc1cccc(C(F)(F)F)c1)c1nc2cc(Cl)ccc2o1 (centres unmarked) [Compound 142]"
endpoint_result = 3

[[record]]
molecule = "CCCC(Oc1ccc(F)c(C(F)(F)F)c1)c1nc2cc(C(F)(F)F)ccc2o1 (centres unmarked) [Compound 199]"
endpoint_result = 4

[[record]]
molecule = "CCCC(Oc1cccc(C(F)(F)F)c1)c1nc2cc(C(F)(F)F)ccc2o1 (centres unmarked) [Compound 200]"
endpoint_result = 2

[[record]]
molecule = "CCC(Oc1cccc(OC(F)(F)F)c1)c1nc2cc([N+](=O)[O-])ccc2o1 (centres unmarked) [Compound 450]"
endpoint_result = 3

[[record]]
molecule = "CCCC(Oc1ccc(F)c(C(F)(F)F)c1)c1nc2cc(Cl)ccc2o1 (centres unmarked) [Compound 141]"
endpoint_result = 4

[[record]]
molecule = "CCC(Oc1ccc(F)c(C(F)(F)F)c1)c1nc2cc([N+](=O)[O-])ccc2o1 (centres unmarked) [Compound 177]"
endpoint_result = 4


###

# Test system: corn
# protocol description: Foliar spread test for upland field
# Format: in vivo
# Parameters: key: 0: normal development; 1: Less damaged; 2: Slightly damaged; 3: Moderately damaged; 4: Severely damaged; 5: All killed
# condition parameters: foliar spray 500 ppm, 3 weeks, rank vs non-treated
Overview of reported Effects Corn across a group of compounds:
measurement kind: Effects Corn

[[record]]
compound = "CCC(Oc1ccc(F)c(C(F)(F)F)c1)c1nc2cc(Cl)ccc2o1 (stereo not drawn)"
endpoint_result = 3

[[record]]
compound = "CCCC(Oc1ccc(F)c(C(F)(F)F)c1)c1nc2cc(F)c(Cl)cc2o1 (stereo not drawn)"
endpoint_result = 2

[[record]]
compound = "CC(Oc1ccc(F)c(C(F)(F)F)c1)c1nc2cc(Cl)ccc2o1 (stereo not drawn)"
endpoint_result = 2

[[record]]
compound = "CCCC(Oc1ccc(F)c(C(F)(F)F)c1)c1nc2cc(C#N)c(C#N)cc2o1 (stereo not drawn)"
endpoint_result = 1

[[record]]
compound = "CCC(Oc1ccc(F)c(C(F)(F)F)c1)c1nc2cc(NC(=O)C(F)(F)F)ccc2o1 (stereo not drawn)"
endpoint_result = 0

[[record]]
compound = "CCC(Oc1cccc(C#N)c1)c1nc2cc(F)c(Cl)cc2o1 (stereo not drawn)"
endpoint_result = 1

[[record]]
compound = "CCC(Oc1ccc(F)c(C(F)(F)F)c1)c1nc2ccc(C(F)(F)F)cc2o1 (stereo not drawn)"
endpoint_result = 2

[[record]]
compound = "CCC(Oc1ccc(F)c(C(F)(F)F)c1)c1nc2cc(OC)ccc2o1 (stereo not drawn)"
endpoint_result = 2

[[record]]
compound = "CCCCC(Oc1ccc(F)c(C(F)(F)F)c1)c1nc2cc(Cl)ccc2o1 (stereo not drawn)"
endpoint_result = 1

